Where do these numbers come from? They come from patent US7189758B2.

Target: human glucocorticoid receptor (GR) complex (Homo sapiens)
Construct: made in house; host or cells: insect cells (baculovirus expression), used as crude lysate
Sequence (P04150 whole entry, one chain of several): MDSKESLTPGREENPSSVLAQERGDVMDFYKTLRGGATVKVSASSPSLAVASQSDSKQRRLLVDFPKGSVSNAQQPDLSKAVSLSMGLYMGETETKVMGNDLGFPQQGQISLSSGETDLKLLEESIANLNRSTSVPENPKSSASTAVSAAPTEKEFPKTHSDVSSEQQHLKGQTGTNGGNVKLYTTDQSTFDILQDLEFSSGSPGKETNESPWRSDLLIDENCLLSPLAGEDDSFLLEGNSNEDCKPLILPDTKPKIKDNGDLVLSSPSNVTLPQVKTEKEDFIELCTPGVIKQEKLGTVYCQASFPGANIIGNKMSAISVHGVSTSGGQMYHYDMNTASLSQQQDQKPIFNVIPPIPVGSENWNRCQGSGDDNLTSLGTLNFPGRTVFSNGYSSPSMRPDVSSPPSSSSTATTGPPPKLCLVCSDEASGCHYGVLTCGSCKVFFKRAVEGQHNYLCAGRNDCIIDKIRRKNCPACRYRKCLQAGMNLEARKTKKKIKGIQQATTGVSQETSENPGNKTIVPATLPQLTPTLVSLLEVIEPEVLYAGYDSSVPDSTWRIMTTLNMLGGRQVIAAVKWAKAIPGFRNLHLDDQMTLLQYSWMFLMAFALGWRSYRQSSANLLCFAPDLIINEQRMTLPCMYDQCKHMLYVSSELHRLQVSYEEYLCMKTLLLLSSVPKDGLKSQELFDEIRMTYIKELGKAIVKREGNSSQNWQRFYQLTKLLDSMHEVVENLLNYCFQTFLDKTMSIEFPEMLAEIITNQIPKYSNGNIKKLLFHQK
Assay: Glucocorticoid receptor competitive binding assay (fluorescence polarization, TAMRA-labeled dexamethasone probe)
Conditions: result in words only; IC50 values not given
Measured metric: activity in the GR binding assay

Some solved entries appear below for comparison.
COc1ccc(F)cc1C(C)(C)CC(O)(Cc1ccccc1)C(=O)Nc1ccc2c(=O)onc(C)c2c1 (centres unmarked) :: potent activity
CC(C)(CC(O)(C(=O)Nc1ccc2c(c1)COC2=O)C1CCCC1)c1cc(F)ccc1O (centres unmarked) :: potent activity
COc1ccc(F)cc1C(C)(C)CC(O)(Cc1ccccc1)C(=O)Nc1ccc2c(c1)COC2=O (centres unmarked) :: potent activity
CC(C)(CC(O)(Cc1ccccc1Cl)C(=O)Nc1ccc2c(c1)COC2=O)c1cc(F)ccc1O (centres unmarked) :: potent activity
Cc1ccccc1CC(O)(CC(C)(C)c1cc(F)ccc1O)C(=O)Nc1ccc2c(c1)COC2=O (centres unmarked) :: potent activity
CC(C)(CC(O)(CC1CCCCC1)C(=O)Nc1ccc2c(c1)COC2=O)c1ccccc1 (centres unmarked) :: potent activity
CC(c1ccccc1)C(O)(CC(C)(C)c1cc(F)ccc1O)C(=O)Nc1ccc2c(c1)COC2=O (centres unmarked) :: potent activity

Measured activity in the GR binding assay of CC(C)(CC(O)(Cc1ccccc1)C(=O)Nc1ccc2c(c1)COC2=O)c1ccccc1 (centres unmarked) : potent activity
